- TEST TARGET: PI3Kα H1047R (T47D cells) (Homo sapiens, UniProt P42336, H1047R)
- Construct: endogenous in cells; host or cells: T47D cells
- Sequence (P42336 whole entry H1047R): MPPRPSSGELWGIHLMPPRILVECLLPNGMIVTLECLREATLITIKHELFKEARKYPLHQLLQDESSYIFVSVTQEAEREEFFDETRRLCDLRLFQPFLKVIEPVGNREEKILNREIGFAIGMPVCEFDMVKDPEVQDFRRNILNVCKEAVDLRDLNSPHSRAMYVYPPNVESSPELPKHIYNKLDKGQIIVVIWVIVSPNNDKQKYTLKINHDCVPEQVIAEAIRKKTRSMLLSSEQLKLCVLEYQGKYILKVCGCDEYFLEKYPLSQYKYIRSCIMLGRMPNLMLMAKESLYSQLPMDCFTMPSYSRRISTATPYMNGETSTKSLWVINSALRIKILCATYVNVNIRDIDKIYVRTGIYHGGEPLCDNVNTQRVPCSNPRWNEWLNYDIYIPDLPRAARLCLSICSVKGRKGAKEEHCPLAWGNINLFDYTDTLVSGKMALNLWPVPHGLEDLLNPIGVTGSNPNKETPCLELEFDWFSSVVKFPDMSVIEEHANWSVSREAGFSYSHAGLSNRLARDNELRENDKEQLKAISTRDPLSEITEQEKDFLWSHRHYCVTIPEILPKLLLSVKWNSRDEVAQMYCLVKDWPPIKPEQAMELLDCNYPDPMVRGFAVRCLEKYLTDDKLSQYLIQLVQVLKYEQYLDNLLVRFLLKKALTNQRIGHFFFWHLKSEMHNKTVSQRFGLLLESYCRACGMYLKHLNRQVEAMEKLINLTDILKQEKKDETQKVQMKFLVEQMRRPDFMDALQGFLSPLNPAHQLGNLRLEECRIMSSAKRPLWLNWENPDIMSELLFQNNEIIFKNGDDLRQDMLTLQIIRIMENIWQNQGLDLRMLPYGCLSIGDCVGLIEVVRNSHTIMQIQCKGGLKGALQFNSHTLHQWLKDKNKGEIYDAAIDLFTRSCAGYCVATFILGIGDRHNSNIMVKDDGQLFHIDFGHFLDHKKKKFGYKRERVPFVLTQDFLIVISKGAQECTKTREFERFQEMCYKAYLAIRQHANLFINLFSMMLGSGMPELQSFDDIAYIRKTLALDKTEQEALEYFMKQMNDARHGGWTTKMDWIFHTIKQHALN
- Sequence (P27986 whole entry partner): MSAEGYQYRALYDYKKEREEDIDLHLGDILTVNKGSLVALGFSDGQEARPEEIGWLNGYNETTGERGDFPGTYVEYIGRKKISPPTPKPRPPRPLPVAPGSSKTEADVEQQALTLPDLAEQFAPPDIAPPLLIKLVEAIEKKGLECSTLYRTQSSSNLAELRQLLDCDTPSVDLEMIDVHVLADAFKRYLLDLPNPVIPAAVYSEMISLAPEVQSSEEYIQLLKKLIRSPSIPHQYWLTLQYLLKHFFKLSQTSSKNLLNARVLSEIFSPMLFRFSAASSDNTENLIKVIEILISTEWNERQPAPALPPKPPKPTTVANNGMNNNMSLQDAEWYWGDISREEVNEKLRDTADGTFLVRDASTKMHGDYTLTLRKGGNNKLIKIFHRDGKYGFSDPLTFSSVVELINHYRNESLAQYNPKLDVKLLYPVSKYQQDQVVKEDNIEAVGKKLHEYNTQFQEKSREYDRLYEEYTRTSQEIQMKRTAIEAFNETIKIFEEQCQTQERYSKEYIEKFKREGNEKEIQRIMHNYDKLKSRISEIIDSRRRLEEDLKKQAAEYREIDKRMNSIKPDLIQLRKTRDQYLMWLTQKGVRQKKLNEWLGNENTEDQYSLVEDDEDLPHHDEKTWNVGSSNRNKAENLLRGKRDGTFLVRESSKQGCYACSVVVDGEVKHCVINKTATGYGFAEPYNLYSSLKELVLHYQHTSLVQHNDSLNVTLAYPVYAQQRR
- TEST DETAILS: PI3Kα cellular assay: pAKT HTRF in T47D cells after EGF stimulation
- Format: cell-based
- MEASUREMENT SETUP: selectivity T47D (H1047R) over SKBR3 (WT), pAKT HTRF
MEASURED ATTRIBUTE: T47D pAKT S473 HTRF IC50 (H1047R): T47D (H1047R) selectivity over SKBR3 (WT)

COMPOUND	TEST TARGET	RESULT
Cc1cc(C(C)Nc2ccccc2-c2ccnnc2)c2nc(-c3ccc4c(C)cn(C)c4c3)c(C)c(=O)n2c1 (stereo not drawn)	PI3Kα H1047R (T47D cells) (Homo sapiens, UniProt P42336, H1047R)	C (C denotes ≤5-fold)
COc1ccc(C(=O)O)c(NC(C)c2cc(C)cn3c(=O)cc(N4CCOCC4)nc23)c1 (stereo not drawn)	PI3Kα H1047R (T47D cells) (Homo sapiens, UniProt P42336, H1047R)	C (C denotes ≤5-fold)
Cc1cc([C@@H](C)Nc2ccccc2C(=O)O)c2nc(-c3ccccc3)cc(=O)n2c1	PI3Kα H1047R (T47D cells) (Homo sapiens, UniProt P42336, H1047R)	C (C denotes ≤5-fold)
Cc1cc(C(C)Nc2ccccc2C(=O)O)c2nc(-c3ccc(C4CCNCC4)nc3)c(C)c(=O)n2c1 (stereo not drawn)	PI3Kα H1047R (T47D cells) (Homo sapiens, UniProt P42336, H1047R)	C (C denotes ≤5-fold)
Cc1cc([C@@H](C)Nc2ccccc2C(=O)O)c2nc(-c3ccnc(C4CC4)c3)cc(=O)n2c1	PI3Kα H1047R (T47D cells) (Homo sapiens, UniProt P42336, H1047R)	C (C denotes ≤5-fold)
CC(Nc1ccccc1C(=O)O)c1cc(C(N)=O)cn2c(=O)cc(N3CCOCC3)nc12 (stereo not drawn)	PI3Kα H1047R (T47D cells) (Homo sapiens, UniProt P42336, H1047R)	C (C denotes ≤5-fold)
Cc1cc(C(C)Nc2ccccc2C(=O)O)c2nc(-c3ccc4c(c3)NC(CO)N4)cc(=O)n2c1 (stereo not drawn)	PI3Kα H1047R (T47D cells) (Homo sapiens, UniProt P42336, H1047R)	C (C denotes ≤5-fold)
Cc1cc([C@@H](C)Nc2ccccc2C(=O)O)c2nc(-c3cccc(C(F)F)c3)cc(=O)n2c1	PI3Kα H1047R (T47D cells) (Homo sapiens, UniProt P42336, H1047R)	C (C denotes ≤5-fold)
CCc1cc(C(=O)NOC)ccc1-c1cc(=O)n2cc(C)cc([C@@H](C)Nc3ccccc3C(=O)O)c2n1	PI3Kα H1047R (T47D cells) (Homo sapiens, UniProt P42336, H1047R)	C (C denotes ≤5-fold)
Cc1cc(C(C)Nc2ccccc2C(N)=O)c2nc(-c3ccnc(C4CC4)c3)c(C)c(=O)n2c1 (stereo not drawn) [Compound 1063]	PI3Kα H1047R (T47D cells) (Homo sapiens, UniProt P42336, H1047R)	A (A denotes >20-fold)
Cc1cc([C@@H](C)Nc2ccccc2C(=O)O)c2nc(-c3ccc4[nH]cnc4c3)cc(=O)n2c1	PI3Kα H1047R (T47D cells) (Homo sapiens, UniProt P42336, H1047R)	A (A denotes >20-fold)
Cc1cc([C@@H](C)Nc2ccccc2C(=O)O)c2nc(-c3ccc(C(=O)NO)cc3)cc(=O)n2c1	PI3Kα H1047R (T47D cells) (Homo sapiens, UniProt P42336, H1047R)	C (C denotes ≤5-fold)
Cc1cc([C@@H](C)Nc2ccccc2C(=O)O)c2nc(N3CCC(C)CC3)cc(=O)n2c1	PI3Kα H1047R (T47D cells) (Homo sapiens, UniProt P42336, H1047R)	A (A denotes >20-fold)
Cc1cc(C(C)Nc2ccccc2C(=O)O)c2nc(N3CCN(CCC(N)=O)CC3)cc(=O)n2c1 (stereo not drawn) [Compound 530]	PI3Kα H1047R (T47D cells) (Homo sapiens, UniProt P42336, H1047R)	C (C denotes ≤5-fold)
Cc1cc([C@H](C)Nc2ccccc2C(=O)O)c2nc(Nc3ccc4[nH]c(=O)oc4c3)cc(=O)n2c1	PI3Kα H1047R (T47D cells) (Homo sapiens, UniProt P42336, H1047R)	C (C denotes ≤5-fold)
Cc1cc(C(C)Nc2ccccc2C(=O)O)c2nc(N3CCC(NS(C)(=O)=O)CC3)cc(=O)n2c1 (stereo not drawn) [Compound 433]	PI3Kα H1047R (T47D cells) (Homo sapiens, UniProt P42336, H1047R)	C (C denotes ≤5-fold)
Cc1cc(C(C)Nc2cccnc2C(=O)O)c2nc(-c3cccc(F)c3)c(C)c(=O)n2c1 (stereo not drawn)	PI3Kα H1047R (T47D cells) (Homo sapiens, UniProt P42336, H1047R)	A (A denotes >20-fold)
CC(=O)N1CCC(c2cc(=O)n3cc(C)cc([C@@H](C)Nc4ccccc4C(=O)O)c3n2)CC1	PI3Kα H1047R (T47D cells) (Homo sapiens, UniProt P42336, H1047R)	C (C denotes ≤5-fold)
Cc1cc([C@@H](C)Nc2ccccc2C(=O)NS(C)(=O)=O)c2nc(N3CCOCC3)cc(=O)n2c1	PI3Kα H1047R (T47D cells) (Homo sapiens, UniProt P42336, H1047R)	C (C denotes ≤5-fold)
Cc1cc(C(C)Nc2ccccc2C(=O)O)c2nc(N3CCN(CCC(N)=O)CC3)cc(=O)n2c1 (stereo not drawn) [Compound 551]	PI3Kα H1047R (T47D cells) (Homo sapiens, UniProt P42336, H1047R)	C (C denotes ≤5-fold)
Cc1cc(C(C)Nc2cnncc2C(=O)O)c2nc(N3CCOCC3)cc(=O)n2c1 (stereo not drawn)	PI3Kα H1047R (T47D cells) (Homo sapiens, UniProt P42336, H1047R)	C (C denotes ≤5-fold)
Cc1cc([C@@H](C)Nc2ccccc2S(N)(=O)=O)c2nc(-c3cccnc3)c(C)c(=O)n2c1	PI3Kα H1047R (T47D cells) (Homo sapiens, UniProt P42336, H1047R)	A (A denotes >20-fold)
Cc1cc(C(C)Nc2ccccc2C(=O)O)c2nc(C3CCCOC3)c(C#N)c(=O)n2c1 (stereo not drawn)	PI3Kα H1047R (T47D cells) (Homo sapiens, UniProt P42336, H1047R)	A (A denotes >20-fold)
Cc1cc([C@@H](C)Nc2ccccc2C(N)=O)c2nc(-c3cccc(C#N)c3)c(C)c(=O)n2c1	PI3Kα H1047R (T47D cells) (Homo sapiens, UniProt P42336, H1047R)	A (A denotes >20-fold)

Data origin, for the record: patent US20260132129A1
